# target.entity: T1, human CXCR4-enriched lipoparticles (Homo sapiens, UniProt P61073)
# T1 construct: purchased Integral Molecular, Philadelphia Pa; LEV101
# method.notes: Biosensor affinity measurement of Fabs on CXCR4-enriched lipoparticles
# Assay type: binding
# condition.details: Fab; kinetic titration
Exercise: state measured Kd for each of the molecules provided.
Numbers only, in s⁻¹.

molecule="h3G10.1.91 VH/h3G10.A58A VL: Fab; VH SEQ ID NO:33, VL SEQ ID NO:57 (antibody, V domains shown, Fab) VH: EVQLVESGGGLVQPGGSLRLSCAASGFTFSDYYMSWVRQAPGKGLEWVGFIRHKANFETTEYSTSVKGRFTISRDDSKNSLYLQMNSLKTEDTAVYYCARDLPGFAYWGQGTLVTVSS VL: DIVMTQSPDSLAVSLGERATINCKSSQSLFNSHTRKNYLAWYQQKPGQPPKLLIYWASARGSGVPDRFSGSGSGTDFTLTISSLQAEDVAVYYCKQSFRLRTFGGGTKVEIK" readout_kind=Kd value_reported=0.000341
molecule="h3G10.2.37 VH/h3G10.A58B VL: Fab; VH SEQ ID NO:35, VL SEQ ID NO:73 (antibody, V domains shown, Fab) VH: EVQLVESGGGLVQPGGSLRLSCAASGFTFSDYYMSWVRQAPGKGLEWVGFIRHKANFYTREYSTSVKGRFTISRDDSKNSLYLQMNSLKTEDTAVYYCARDLPGFAYWGQGTLVTVSS VL: DIVMTQSPDSLAVSLGERATINCKSSQSLFNSHTRKNYLAWYQQKPGQPPKLLIYWASARGSGVPDRFSGSGSGTDFTLTISSLQAEDVAVYYCKQSFNLRTFGGGTKVEIK" readout_kind=Kd value_reported=0.000449

Next, consider the following molecule.
Note down Kd recorded for h3G10.2.37 VH/h3G10.A58A VL: Fab; VH SEQ ID NO:35, VL SEQ ID NO:57 (antibody, V domains shown, Fab) VH: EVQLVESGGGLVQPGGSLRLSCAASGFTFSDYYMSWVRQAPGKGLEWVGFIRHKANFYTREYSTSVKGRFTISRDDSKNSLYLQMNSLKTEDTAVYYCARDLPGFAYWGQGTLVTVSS VL: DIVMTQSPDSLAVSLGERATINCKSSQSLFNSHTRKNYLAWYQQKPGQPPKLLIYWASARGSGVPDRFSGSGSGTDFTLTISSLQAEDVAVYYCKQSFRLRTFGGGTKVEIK
0.000418
